Form field: AC50 (one value per entry).
tested.system: Heat shock protein HSP 90-alpha (Homo sapiens, UniProt P07900)
Format: functional, organism-based
Active and inactive are the calls of the source.

molecule	AC50
Cc1nn2c(NCc3ccccn3)cc(C(C)(C)C)nc2c1-c1ccccc1	1.78 µM (active)
COc1cccc(N=Nc2ccc3cccnc3c2O)c1	5.71 µM (active)
O=[N+]([O-])c1ccc(NC(c2ccccc2)c2ccc3cccnc3c2O)cc1 (centres undefined)	3.92 µM (active)
CCCCCCCCCCCCCCCC[n+]1ccn(CC(C)=O)c1	2.86 µM (active)
CC(=O)N1N=C(c2ccccc2)OC1c1ccc([N+](=O)[O-])s1 (centres undefined)	8.37 µM (active)
CC1=NOC(=O)/C1=C/c1ccc(-c2ccc(Cl)cc2)o1	2.08 µM (active)
CC(=O)NC(c1ccc(C)cc1)c1cc(Cl)c2cccnc2c1O (centres undefined)	3.52 µM (active)
Cc1ccc(C(=O)C(SC(C)(C)C)n2cncn2)cc1 (centres undefined)	3.99 µM (active)
CCc1ccc(NC(=O)c2nc(S(=O)(=O)Cc3ccccc3)ncc2Cl)cc1	1.74 µM (active)

* * *

tested.system: Cytochrome P450 2C19 (Homo sapiens)
Sequence (P33261 whole entry): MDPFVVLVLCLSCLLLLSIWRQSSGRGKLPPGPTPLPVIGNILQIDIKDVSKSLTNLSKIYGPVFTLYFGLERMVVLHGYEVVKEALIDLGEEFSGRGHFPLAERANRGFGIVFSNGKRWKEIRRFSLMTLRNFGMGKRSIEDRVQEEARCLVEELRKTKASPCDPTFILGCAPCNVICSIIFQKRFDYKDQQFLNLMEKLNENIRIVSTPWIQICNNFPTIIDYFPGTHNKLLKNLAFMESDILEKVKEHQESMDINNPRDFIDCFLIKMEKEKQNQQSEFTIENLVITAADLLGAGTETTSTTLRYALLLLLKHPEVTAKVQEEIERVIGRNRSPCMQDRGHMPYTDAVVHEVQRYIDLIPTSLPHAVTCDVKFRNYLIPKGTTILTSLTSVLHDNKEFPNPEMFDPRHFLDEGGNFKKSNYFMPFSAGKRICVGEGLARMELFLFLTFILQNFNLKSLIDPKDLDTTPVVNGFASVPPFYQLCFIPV
assay: Cytochrome panel assay with activity outcomes. Panel member name: p450-cyp2c19 Compounds with AC50 equal or less than 10 uM are considered active
Format: functional
experimental.endpoint: AC50

compound	reported.result
COc1ccc(C(=O)Nc2cccc3c2C(=O)NC3=O)cc1S(=O)(=O)N1CCOCC1	inconclusive
Cc1noc(C)c1-c1cncnc1N1CCN(C)CC1	inconclusive
CN1C(=O)CC(NNC(=O)c2ccccc2)C1=O (centres undefined)	inconclusive

* * *

As an illustration, consider measured AC50 for molecules on UniProtKB P11712.
Sequence (P11712 whole entry): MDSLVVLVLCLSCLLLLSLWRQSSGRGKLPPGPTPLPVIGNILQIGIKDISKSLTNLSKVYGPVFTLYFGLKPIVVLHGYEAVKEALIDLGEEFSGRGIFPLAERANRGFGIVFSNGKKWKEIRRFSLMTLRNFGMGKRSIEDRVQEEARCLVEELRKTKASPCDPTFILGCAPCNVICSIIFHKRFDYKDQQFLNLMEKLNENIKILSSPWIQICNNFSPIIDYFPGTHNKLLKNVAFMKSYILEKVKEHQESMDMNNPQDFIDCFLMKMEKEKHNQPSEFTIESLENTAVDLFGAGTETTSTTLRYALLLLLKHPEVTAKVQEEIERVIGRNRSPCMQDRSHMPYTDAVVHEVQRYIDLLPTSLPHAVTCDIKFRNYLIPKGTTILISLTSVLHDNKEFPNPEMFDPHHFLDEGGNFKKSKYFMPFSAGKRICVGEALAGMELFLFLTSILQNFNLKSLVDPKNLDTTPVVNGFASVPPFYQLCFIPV
experimental.endpoint: AC50

molecule	experimental.endpoint	reported.result
CC(N)Cc1ccccc1Sc1ccc(O)cc1 (stereo unspecified)	AC50	17.8 µM (inconclusive)
COc1ccc(-c2cc3ccccc3n2CC(O)CNCCO)cc1 (stereo unspecified)	AC50	17.8 µM (inconclusive)
COC(=O)c1ccccc1NC(=O)C1CCN(C(=O)c2ccc(OC)cc2)CC1	AC50	8.91 µM (inconclusive)
CCCNC(=O)c1c(C)cc(=O)oc1C	AC50	0.112 µM (inconclusive)
O=C(Nc1ccc(Cl)cc1C(=O)c1ccccc1)c1ccco1	AC50	3.98 µM (inconclusive)
Cc1ccc(CCN2CC(C(=O)N3CCC4(CC3)OCCO4)CC2=O)cc1 (stereo unspecified)	AC50	12.6 µM (inconclusive)
COc1ccc(NC(=O)CSc2nncn2C)c([N+](=O)[O-])c1	AC50	14.1 µM (inconclusive)
CC1CC(OCC(O)CN2CCN(Cc3ccccc3)CC2)CC(C)(C)C1 (stereo unspecified)	AC50	0.0251 µM (inconclusive)
CCC12C=CCN3CCC4(c5cc(Br)c(OC)cc5N(C)C4C(O)(C(=O)OC)C1OC(C)=O)C32 (stereo unspecified)	AC50	22.4 µM (inconclusive)
Cc1cc(C)cc(NC(=O)N2CCCC2C(=O)Nc2ccc(-n3cnnn3)c(C)c2)c1 (stereo unspecified)	AC50	20 µM (inconclusive)
CCOC(=O)c1c(-c2ccccc2)nc2ccccn12	AC50	25.1 µM (inconclusive)

* * *

assay: Trypanosoma cruzi growth suppression in host cells – NIH3T3 host cells, beta-gal luminescence, confirmation (AID 2044);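 also: intracellular parasites grown in NIH/3T3 mouse fibroblasts as host cells; luminescent beta-galactosidase reporter signal from transgenic T. cruzi replicating inside host cells; inhibitors lower the luminescence signal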
Type: functional, cell-based
Activity calls are given as the source filed them.
Documented EC50 across a set of compounds
experimental.endpoint: EC50

compound	reported.result
Cc1ccc2nc(N=C(N)NS(=O)(=O)c3ccc([N+](=O)[O-])cc3)nc(C)c2c1	199 nM (active)
COc1ccc(CCNC(=O)c2cc3c(=O)n4ccccc4nc3n(C3CCCCC3)c2=N)cc1	2170 nM (active)
COc1ccc(OC)c(Nc2nc(N(C)c3ccccc3)nc(N)c2[N+](=O)[O-])c1	888 nM (active)
CC1CCN(Cc2c(C(=O)N/N=C/c3cc(Cl)ccc3O)nnn2-c2nonc2N)CC1	541 nM (active)
O=[N+]([O-])c1nn(-c2ccccc2)[n+]([O-])c1N1CCN(c2ccccc2)CC1	483 nM (active)
O=C(Nc1nc2ccccc2n1Cc1ccc(Cl)cc1)c1ccco1	1720 nM (active)
N=C(N)N/N=C/c1cccc(Cl)c1Cl	435 nM (active)
N#CC1=C(N)Oc2c(ccc3ccccc23)C1c1ccsc1 (stereo not given)	2630 nM (active)
CCN(CC)CCSc1nnc2c3cc(C)ccc3n(Cc3ccccc3)c2n1	754 nM (active)
Cc1sc2ncnc(N3CCN(CCOc4ccc(Cl)cc4)CC3)c2c1C	2290 nM (active)
